Test system: human lung cancer strain NCI-H441
Experiment: NCI-H441 cell proliferation inhibitory activity (CellTiter-Glo, 4 days)
Format: cell-based
Conditions: NCI-H441 cells, 4 days, read-out: NCl-H441 IC50
Description: A test compound was dispensed into a U-bottom 384-well plate as 40 nL serially diluted dimethyl sulfoxide solutions using a liquid handler Echo (LABCYTE). […] This cell suspension was dispensed in an amount of 40 µL per well into a plate containing the test compound, and cultured at 37°C in a 5% carbon dioxide gas incubator. Four days later, 20 µL of CellTiter-Glo (registered trademark) (Promega) was added to each well and […] was measured. […]
pIC50: −log10 of the molar value.
Mark false for pIC50 values under 8, and true for everything at or above.

| compound | cat |
| --- | --- |
| CCC[C@H]1C(=O)N[C@@H](CC(C)C)C(=O)N2C[C@@H](OC)C[C@H]2C(=O)N(C)[C@H]2C/C=C\CCN(C2=O)[C@@H](Cc2ccc(C)cc2)C(=O)N(C)CC(=O)N[C@@H](CCc2ccc(C(F)(F)F)c(Cl)c2)C(=O)N2C[C@H](OCC)C[C@H]2C(=O)NC2(CC(C)(C)C2)C(=O)N(C)[C@@H](C2CCCC2)C(=O)N(C)[C@H](C(=O)N(C)C)CC(=O)N1C [PP2555] | false |
| C#CC[C@H]1C(=O)N[C@@H]([C@@H](C)CC)C(=O)N(C2CC2)CC(=O)N(C)[C@H]2C/C=C\CCN(C2=O)[C@@H](Cc2ccc(C)cc2)C(=O)N(C)CC(=O)N[C@@H](CCc2ccc(C(F)(F)F)c(Cl)c2)C(=O)N2C[C@H](OCC)C[C@H]2C(=O)N(C)C2(CCC2)C(=O)N(C)[C@@H](C2CCCC2)C(=O)N(C)[C@H](C(=O)N(C)C)CC(=O)N1C [PP3251] | true |
| CCC[C@H]1C(=O)N[C@@H]([C@@H](C)CC)C(=O)N(C2CC2)CC(=O)N(C)[C@H]2C/C=C\CCN(C2=O)[C@@H](Cc2ccc(C(F)F)cc2)C(=O)N(C)CC(=O)N[C@@H](CCc2cc(F)c(C(F)(F)F)c(F)c2)C(=O)N2C[C@H](OCC)C[C@H]2C(=O)NC2(CC(C)(C)C2)C(=O)N(C)[C@@H](C(CC)CC)C(=O)N(C)[C@H](C(=O)N(C)C)CC(=O)N1C [PP2527] | false |
| CCC(CC)[C@H]1C(=O)N(C)[C@H](C(=O)N(C)C)CC(=O)N(C)[C@@H](COC)C(=O)N[C@@H]([C@@H](C)CC)C(=O)N(C2CC2)CC(=O)N(C)[C@H]2C/C=C\CCN(C2=O)[C@@H](CC2CCC(F)(F)CC2)C(=O)N(C)CC(=O)N[C@@H](CCc2cc(F)c(C(F)(F)F)c(F)c2)C(=O)N2C[C@H](OC3CCCC3)C[C@H]2C(=O)NC2(CC(C)(C)C2)C(=O)N1C [PP2627] | false |
| CCCN(C)C(=O)[C@@H]1CC(=O)N(C)[C@@H](CC(C)C)C(=O)N[C@@H]([C@@H](C)CC)C(=O)N2CCC[C@H]2C(=O)N(C)[C@H]2C/C=C\CCN(C2=O)[C@@H](Cc2ccc(C(F)(F)F)cc2)C(=O)N(C)CC(=O)N[C@@H](CCc2cc(F)c(C(F)(F)F)c(F)c2)C(=O)N2C[C@H](OCC)C[C@H]2C(=O)N[C@]2(C[C@@H](OC)C2)C(=O)N(C)[C@@H](C2CCCC2)C(=O)N1C [PP3354] | false |
| CCC[C@H]1C(=O)N[C@@H]([C@@H](C)CC)C(=O)N(C2CC2)CC(=O)N(C)[C@H]2C/C(F)=C\CCN(C2=O)[C@@H](Cc2ccc(C)cc2)C(=O)N(C)CC(=O)N[C@@H](CCc2cc(F)c(C(F)(F)F)c(F)c2)C(=O)N2C[C@H](OCC)C[C@H]2C(=O)NC2(CCC2)C(=O)N(C)[C@@H](C2CCCC2)C(=O)N(C)[C@H](C(=O)N(C)C)CC(=O)N1C [PP3519] | false |
